Molecular target: DNA-PK(h) (Homo sapiens, UniProt P78527)
Experiment: Evaluation of inhibitory activity against DNA-PK (HTRF kinase assay, GST-cMyc-p53 substrate)
Assay type: biochemical
Details: compound concentration 0.1 μM; read-out: EXP_VALUE(% Inhibition) DNA-PK(h) 0.1 μM
measure.name: inhibition at 0.1 µM (%)

{"columns": ["compound", "inhibition at 0.1 µM [%]"],
 "data": [
  ["C[C@H](Nc1ncnc2[nH]ccc(=O)c12)c1c(Cl)c2cccc(-c3cnc(Cl)c4ccccc34)c2c(=O)n1-c1ccccc1", 2.7],
  ["C[C@H](Nc1ncnc2[nH]ccc(=O)c12)c1c(Cl)c2cccc(-c3cccc(F)c3)c2c(=O)n1-c1ccccc1", 93],
  ["C[C@H](Nc1ncnc2[nH]ccc(=O)c12)c1c(Cl)c2cccc(-c3cc(F)cc(F)c3)c2c(=O)n1-c1ccccc1", 86],
  ["C[C@H](Nc1ncnc2[nH]ccc(=O)c12)c1c(Cl)c2cccc(-c3cncnc3)c2c(=O)n1-c1ccccc1", 94],
  ["CC(Oc1cccc2c(Cl)c([C@H](C)Nc3ncnc4[nH]ccc(=O)c34)n(-c3ccccc3)c(=O)c12)c1ccncc1 (some centres unmarked)", 85]
]}

(1) Cc1cc(C#N)ccc1-c1cccc2c(Cl)c([C@H](C)Nc3ncnc4[nH]ccc(=O)c34)n(-c3ccccc3)c(=O)c12
(2) C[C@H](Nc1ncnc2[nH]ccc(=O)c12)c1cc2cccc(-c3ccc(N(C)C)nc3)c2c(=O)n1-c1ccccc1
Which of the two items, 1 and 2 , has the greater recorded inhibition at 0.1 µM? When you have decided, please share the label of that item.
1
(1: 86%, 2: 41%)

(1) C[C@H](Nc1ncnc2[nH]ccc(=O)c12)c1c(Cl)c2cccc(-c3cnn(CCN(C)C)c3)c2c(=O)n1-c1ccccc1
(2) C[C@H](Nc1ncnc2[nH]ccc(=O)c12)c1c(Cl)c2cccc(N(C)Cc3ccc4ccccc4c3)c2c(=O)n1-c1ccccc1
Kindly compare 1 with 2 and tell me which has the lower inhibition at 0.1 µM figure. When you have decided, please share the label of that item.
2
